compound: COc1cccc(-c2c(/C=C/C(=O)NCCCCc3cccnc3)ccc3ccc(OC)cc23)c1
melting point: 108 to 110 °C
--
compound: Brc1ccc(-c2cn([C@H]3CN4CCC3CC4)nn2)o1
melting point: 144 °C
--
compound: COc1ccccc1NC(=O)Nc1ccc2c(c1)CCN(C(=O)Nc1ccc(OCCO)cc1Cl)C2
melting point: 130 to 135 °C
--
compound: Cc1ccc(-c2ccc3c(c2)C=C(C(=O)O)CC(C)O3)cc1 (stereo unspecified)
melting point: 224 to 225 °C
--
compound: O=[N+]([O-])c1ccc(SC2SCC(O)C(O)C2O)cc1 (stereo unspecified)
melting point: 168 °C
--
compound: N#Cc1c(Cl)cncc1Cl
melting point: 117 to 118 °C
--
compound: O=C(Cc1ccccc1)NC1C(=O)N2C1SC1(CCN(c3ccccc3)CC1)C2C(=O)OCc1ccccc1 (stereo unspecified)
melting point: 120 to 121 °C
--
compound: Cc1c(CNCC(C)(C)C)n(C)c2ccc(NC(=O)c3ccc(OCC4CC4)cc3)cc12
melting point: 169 to 170 °C
--
compound: CN(Cc1ccccc1)c1nc(=O)c2cc(C(F)(F)F)cc([N+](=O)[O-])c2s1
melting point: 120 to 124 °C
--
compound: CCCCc1nc2cccc(C(=O)OC)c2n1Cc1ccc(-c2ccccc2-c2nc(=S)o[nH]2)cc1
melting point: 180 to 181 °C
--
compound: CC(C)Oc1n[nH]c(=O)n1C1CC1
melting point: 146 to 147 °C
--
compound: Cc1cc(-c2noc(C(F)(F)F)n2)cc(C)c1OCCCc1ccc(CCl)nc1
melting point: 79 to 81 °C
--
compound: CCOCc1nc2c(N)nc3ccccc3c2n1CCCON=C(C)C
melting point: 109 to 111 °C
--
compound: O=C(O)Cc1ccc([N+](=O)[O-])cc1CC(=O)O
melting point: 187 to 188 °C
--
compound: COc1ccc2c(c1)CCC(C(=O)O)O2 (stereo unspecified)
melting point: 131 to 135 °C
--
compound: O=C1OCCN1C(=O)c1ccccc1
melting point: 166 to 170 °C
--
compound: CC1CC(=O)c2cc([N+](=O)[O-])c(Br)cc2O1 (stereo unspecified)
melting point: 125 to 128 °C
--
compound: Cc1csc(C)c1S(N)(=O)=O
melting point: 135 °C
--
compound: O=C(NCCN(Cc1ccccc1)Cc1ccccc1)C1CCN(c2c(Cl)cncc2Cl)CC1
melting point: 147 to 149 °C
--
compound: CCc1nc2c([nH]1)c(=O)n(C)c(=O)n2-c1ccc(Cl)cc1Cl
melting point: 274 to 276 °C
--
compound: CN1CCN(Cc2cc(-c3ccc4c(c3)CCO4)nn(CC3CC3)c2=O)CC1
melting point: 128 to 130 °C

====

Item-by-item account of melting point

compound: CCN(CC)CC1CCn2c(nc3ccccc32)S1 (stereo not given)
melting point: 93 to 94 °C
--
compound: Cc1ccc(C2c3c(C)c(N4CCN(c5ccc(C#N)cc5)CC4)c(C)c(C)c3OC2(C)C)cc1 (stereo not given)
melting point: 216 to 217 °C
--
compound: CCCCc1nc2c(N)nc3cccnc3c2n1CC(C)C
melting point: 115 to 116 °C
--
compound: O=C1N(CCC2CC2)c2ccccc2C12COc1cc3c(cc12)OCO3 (stereo not given)
melting point: 125 to 127 °C
--
compound: O=[N+]([O-])c1c(Br)nn(CC(O)CO)c1NCc1ccccc1 (stereo not given)
melting point: 90.1 °C

====

Item-by-item account of melting point
measurement-type: melting point

compound: CNC(=O)n1c(N=Cc2ccc([N+](=O)[O-])o2)nc2ccccc21
measurement-type: melting point
result: 170 to 171 °C
//
compound: CCC(O)c1ccc(Cl)c2nc3n(c12)CCCN3c1ccc(Cl)cc1C(F)(F)F (stereo not given)
measurement-type: melting point
result: 220 to 222 °C
//
compound: CCCCCCCCC(SCCCCCC)C(=O)Nc1c(OC)ccc2ncccc12 (stereo not given)
measurement-type: melting point
result: 88 to 89 °C
//
compound: C1=C(c2cccs2)NN=C(c2cccs2)C1c1cccs1 (stereo not given)
measurement-type: melting point
result: 168 °C
//
compound: CCC(=O)NCCC1CCc2ccc3ncoc3c21 (stereo not given)
measurement-type: melting point
result: 89 to 90 °C
//
compound: CCn1c(=O)c2[nH]c(/C=C/c3ccc(OC)cc3OC)nc2n(CC)c1=O
measurement-type: melting point
result: 279 to 280 °C
//
compound: Nc1ccc(-n2ccn(-c3ccc(OCC(F)(F)C(F)F)cc3)c2=O)cc1
measurement-type: melting point
result: 178 to 179 °C
//
compound: CC1(c2ccc(COc3ncc(Br)s3)cc2)OCCO1
measurement-type: melting point
result: 129 to 131 °C
//
compound: CCN1CCN(c2c(F)cc3c(=O)c(C(=O)O)cn(CC)c3c2F)CC1
measurement-type: melting point
result: 236 to 239 °C
//
compound: Cc1ccc(N2CCCCC2)c(NC(=O)c2ccncc2)c1
measurement-type: melting point
result: 142 to 144 °C

====

measurement-type: melting point

compound: OC(Cn1cncn1)(CC(Cl)(Cl)Cl)c1ccc(F)cc1 (stereo not given)
result: 127 °C
//
compound: COc1ccc(-c2cncc(-c3cn(C)c(=O)n3-c3ccc(C(C)(C)C#N)cc3)c2)cc1
result: 200 °C
//
compound: CC1(C)OC(C=Cc2ccc(C#N)cc2)=CC1=O
result: 170 °C
//
compound: COC(C)C(=O)Nc1ccc(C2=NNC(=O)CC2)cc1 (stereo not given)
result: 245 to 247 °C
//
compound: Cn1c(CCNC(=O)c2cc(F)cc3c2OCOC3)nc(-c2ccncn2)cc1=O
result: 207 to 209 °C

====

compound: c1ccc2c(c1)C1(CO1)c1ccccc1C21CO1 (stereo unspecified)
melting point: 119 to 121 °C

compound: COc1cc(F)c(C)cc1N
melting point: 108 to 110 °C

compound: CCCCCCCCCCCCCC(=O)NN
melting point: 107 to 111 °C

compound: O=C(NCc1ccc(O)cc1)c1[nH]c2ccc(Cl)cc2c1S(=O)(=O)c1ccccc1
melting point: 249 to 250 °C

compound: O=C(O)C1Cc2c(n(Cc3ccccc3)c3ccccc23)CN1 (stereo unspecified)
melting point: 252 to 253 °C

compound: CCCCc1oc2ccccc2c1-c1ncc(-c2ccc3cc(OCc4ccc(C(=O)O)cc4)ccc3c2)o1
melting point: 251 to 254 °C

compound: O=C1CCN(c2ccc(CC3SC(=O)NC3=O)cc2F)CC1 (stereo unspecified)
melting point: 129 to 130 °C

compound: O=C(O)c1cccc2cc3ccccc3cc12
melting point: 245 °C

compound: COc1ccc(S(=O)(=O)[C@H](CCCCc2ccccc2)[C@@H](CCS(=O)(=O)c2ccccc2)C(=O)NO)cc1OC
melting point: 78 to 81 °C

compound: COC(C)c1ccc(C=C(C)c2ccc3c(c2)C(C)(C)CCC3(C)C)cc1 (stereo unspecified)
melting point: 88 to 89 °C

compound: Cc1ccc2c(c1)CC(=O)N2c1c(F)cccc1Cl
melting point: 137 to 140 °C

====

Item-by-item account of melting point
measurement-type: melting point

molecule: CCCCCS(=O)(=O)NC(=O)OCc1ccc(OS(=O)(=O)CCC)cc1Oc1ncc(C(F)(F)F)cc1Cl
result: 86 to 89 °C

molecule: CC(C)Oc1ccccc1-c1cc(=O)c2cc(C(=O)O)ccc2o1
result: 133 to 135 °C

molecule: COc1ccc(CCN2CCC(C(=O)c3nc4ccccc4s3)CC2)cc1
result: 119 to 120 °C

molecule: COC(=O)C1CCCN1C(=O)c1ccccc1 (stereo not given)
result: 88.5 to 90 °C

molecule: CCCCCCCCOC(=O)C1=CC(=O)C(C(=O)OCCCCCCCC)=C(S(=O)(=O)c2ccc(C)cc2)C1=O
result: 75 to 77 °C

====

Item-by-item account of melting point

molecule: Cc1cccc(C)c1C(c1cccc2ccccc12)C(C#N)C(=O)OC(C)(C)C (stereo not given)
melting point: 124 to 128 °C

molecule: COc1ccc(-c2cc(CO)c(=O)n(CC3CCCC3)n2)cc1F
melting point: 130 to 133 °C

molecule: Nc1nc(N)c(Br)c(OCc2ccccc2)n1
melting point: 165 to 166 °C

molecule: CC(C)(C)c1cc(I)c2c(c1)CNC1(CCCCC1)O2
melting point: 112 to 114 °C

molecule: CCc1cc2c(cc1O)CCC1C2CCC2(C)C(CCO[Si](c3ccccc3)(c3ccccc3)C(C)(C)C)CCC12 (stereo not given)
melting point: 134 to 135 °C

====

Item-by-item account of melting point

compound: COC(=O)C(=NO)N(C)c1cccc(C(F)(F)F)c1
melting point: 131 °C
//
compound: CC(=O)n1nc(N2CCN(C)CC2)c2ccccc21
melting point: 106 to 108 °C
//
compound: CCOC(=O)c1c(C)c(C#N)c(N)c(C#N)c1C
melting point: 206 °C
//
compound: O=C1C(O)=C(C2CCC(c3ccc(Cl)cc3)CC2)C(=O)c2ccccc21 (stereo not given)
melting point: 216 to 219 °C
//
compound: CCC12CCC3C4CCC(=O)C=C4CCC3C1CCC2C(C)=O (stereo not given)
melting point: 138 to 142 °C
//
compound: COc1cc(C(=O)N(CCCC(=O)NCCCC(=O)O)c2c(C)cccc2C)cc(OC)c1OC
melting point: 100 to 101 °C
//
compound: COc1ccc(Nc2nc(Cl)nc3c(OC)cccc23)c(C)c1
melting point: 230 to 232 °C
//
compound: Cn1c(=O)c2c(Oc3cccc(Cl)c3)cccc2n2cnc(-c3noc(C4CC4)n3)c12
melting point: 201 to 203 °C
//
compound: Cc1nc[nH]c1CSCCNC(=N)NS(=O)(=O)c1ccccc1
melting point: 149 to 150 °C
//
compound: CC1CC(=O)NN=C1c1ccc(N2CCN(c3ncccn3)CC2)c(N)c1 (stereo not given)
melting point: 220 to 221 °C
